All values here come from PubChem BioAssay AID179.

Tested on: CEM cells HIV-1 protection, formazan growth assay
method.summary: NCI AIDS Antiviral Assay
particulars: measured here: growth of uninfected CEM cells
Experimental: The ability of compounds to protect human CEM cells from HIV-1 infection is measured as a screen for new compounds capable of inhibiting the HIV virus. Five concentrations of drug were tested on uninfected and infected cells and cell growth was measured using a soluble formazan assay. […] Compounds that provided at least 50% protection were retested. Compounds that provided at least 50% protection on retest were listed as moderately active. […]
test.readout: IC50 (µM)
Answers are plain numbers, in µM.

Worked cases, IC50 given:
O=C1CNc2cc(N3CCN(c4cccc(C(F)(F)F)c4)CC3)ccc2N1 | 75.9
Oc1cccc2ccc(SSc3ccc4cccc(O)c4n3)nc12 | 20.4
Clc1ccccc1C[P+](c1ccccc1)(c1ccccc1)c1ccccc1 | 4.57
CC(C)(C)n1c(=O)n2c(-c3ccccc3)c(-c3ccccc3)n2c1=O | 25.7

Please go through the list and note IC50 for each compound.
1. COC(=O)NC(C(F)(F)F)(C(F)(F)F)P1(=O)OCCCO1
2. C=CCNc1nc2c(s1)C(=O)c1ccccc1C2=O
3. COCN(C)c1nc(N(C)C)nc(N(C)C)n1
4. Cc1ccc2cccc(-c3cccc4ccccc34)c2n1
5. NC(N)=NCc1ccc2c(c1)OCO2

(A)
1. 63.1
2. 8.32
3. 70.8
4. 10.5
5. 166

* * *

System: CEM cells HIV-1 protection, formazan growth assay
method.summary: NCI AIDS Antiviral Assay
particulars: measured here: growth of uninfected CEM cells
test.readout: pIC50
Numbers only, as −log10 of the molar value.

Here is how some compounds turned out for pIC50.
CCCCC(C=O)(C=C=C(C)C)CC (stereo not given) | 4.46
COc1csc([C@H]2CCC3[C@@H]4CC=C5C[C@@H](OC(=O)CCC(=O)O)CC[C@]5(C)C4CC[C@@]32C)n1 (stereo not given in full) | 4.49
CCn1c2ccc(C(=O)CCCN(C)C)cc2c2cc(C(=O)CCCN(C)C)ccc21 | 6.91
S=C1NC(=NC2CCCCC2)C2(CCN(CCc3ccccc3)CC2)N1c1ccccc1 | 4.27
CCCCNCCC(SSSC(CCNCCCC)c1ccc(Cl)cc1)c1ccc(Cl)cc1 (stereo not given) | 5.46

For every item below, please supply its pIC50.
1. CNC(=O)CNC(=O)c1ccccc1SC(=O)CCCC[n+]1ccccc1
2. Cc1nc2sc3c(c2c(=O)o1)CCCC3
3. O=c1ccn(C2OC(CN(O)CCC3C(CO)OC(n4ccc(=O)[nH]c4=O)C3O)C(O)C2O)c(=O)[nH]1 (stereo not given)

(A)
1: 4.64; 2: 4.48; 3: 3.90

* * *

Tested on: CEM cells HIV-1 protection, formazan growth assay
method.summary: NCI AIDS Antiviral Assay
particulars: measured here: growth of uninfected CEM cells
Answer each item with its documented IC50.
One number for each entry, in µM.

c1cc2c(cc1NC1=NCCO1)OCO2 | 58.9
O=C1c2ccccc2-n2c1nc1ccccc1c2=O | 52.5
COc1cnc([C@H]2CCC3[C@@H]4CC=C5C[C@@H](OC(=O)CCC(=O)O)CC[C@]5(C)C4CC[C@@]32C)s1 (stereo partly specified) | 29.5
Oc1ccccc1C=Nc1ccccc1SSc1ccccc1N=Cc1ccccc1O | 8.13
O=[N+]([O-])c1ccc(-c2nc(N(CCO)CCO)c3ccccc3n2)o1 | 0.331

Now consider the entry below.
Form field IC50, entry N#C/C(C(=O)Nc1ccccc1)=C(/N)N1CCCC1 : 174
